Measured PBM binding z-score accompanies every entry in the list below.
System: PPARg:RXRa 30nM:10nM, anti-RXR (NR concentration 30 nM, RXRa partner concentration 10 nM)
Test: PBM binding z-score (relative to random genomic background probes); higher = stronger binding; sequences stand for … in GC…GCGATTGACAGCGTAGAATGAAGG
Answer with the value's number alone.

{"POLYMER SEQUENCE": "AGGATGAGGTTATACGTAGATCAGGGAAGAAAGT", "PBM binding z-score": 0.501}

In plain terms, GCTGCTAGGACAGGTTGGTCAGCTAACGGGTACG has a documented PBM binding z-score of -1.16

# PBM binding z-score (sequence: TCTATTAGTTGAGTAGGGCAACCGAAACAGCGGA ) is 3.14

Measured PBM binding z-score of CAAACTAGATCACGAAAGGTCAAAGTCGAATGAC : 2.26

PBM binding z-score reported for this sequence ATACCAAGGTGATCCTGAGGTCGTTGATACTAAC : 0.147

Input CCTTACAGGTCACTCCAGGTTATAGCATCGGAGT . Output PBM binding z-score: 1.52
